Please go through the items and note down their IC50.
target.under.test: NMDAR1C--NMDAR2A (Rattus norvegicus, UniProt P35439+Q00959)
Sequence (Q00959 23-1464, other chains not shown): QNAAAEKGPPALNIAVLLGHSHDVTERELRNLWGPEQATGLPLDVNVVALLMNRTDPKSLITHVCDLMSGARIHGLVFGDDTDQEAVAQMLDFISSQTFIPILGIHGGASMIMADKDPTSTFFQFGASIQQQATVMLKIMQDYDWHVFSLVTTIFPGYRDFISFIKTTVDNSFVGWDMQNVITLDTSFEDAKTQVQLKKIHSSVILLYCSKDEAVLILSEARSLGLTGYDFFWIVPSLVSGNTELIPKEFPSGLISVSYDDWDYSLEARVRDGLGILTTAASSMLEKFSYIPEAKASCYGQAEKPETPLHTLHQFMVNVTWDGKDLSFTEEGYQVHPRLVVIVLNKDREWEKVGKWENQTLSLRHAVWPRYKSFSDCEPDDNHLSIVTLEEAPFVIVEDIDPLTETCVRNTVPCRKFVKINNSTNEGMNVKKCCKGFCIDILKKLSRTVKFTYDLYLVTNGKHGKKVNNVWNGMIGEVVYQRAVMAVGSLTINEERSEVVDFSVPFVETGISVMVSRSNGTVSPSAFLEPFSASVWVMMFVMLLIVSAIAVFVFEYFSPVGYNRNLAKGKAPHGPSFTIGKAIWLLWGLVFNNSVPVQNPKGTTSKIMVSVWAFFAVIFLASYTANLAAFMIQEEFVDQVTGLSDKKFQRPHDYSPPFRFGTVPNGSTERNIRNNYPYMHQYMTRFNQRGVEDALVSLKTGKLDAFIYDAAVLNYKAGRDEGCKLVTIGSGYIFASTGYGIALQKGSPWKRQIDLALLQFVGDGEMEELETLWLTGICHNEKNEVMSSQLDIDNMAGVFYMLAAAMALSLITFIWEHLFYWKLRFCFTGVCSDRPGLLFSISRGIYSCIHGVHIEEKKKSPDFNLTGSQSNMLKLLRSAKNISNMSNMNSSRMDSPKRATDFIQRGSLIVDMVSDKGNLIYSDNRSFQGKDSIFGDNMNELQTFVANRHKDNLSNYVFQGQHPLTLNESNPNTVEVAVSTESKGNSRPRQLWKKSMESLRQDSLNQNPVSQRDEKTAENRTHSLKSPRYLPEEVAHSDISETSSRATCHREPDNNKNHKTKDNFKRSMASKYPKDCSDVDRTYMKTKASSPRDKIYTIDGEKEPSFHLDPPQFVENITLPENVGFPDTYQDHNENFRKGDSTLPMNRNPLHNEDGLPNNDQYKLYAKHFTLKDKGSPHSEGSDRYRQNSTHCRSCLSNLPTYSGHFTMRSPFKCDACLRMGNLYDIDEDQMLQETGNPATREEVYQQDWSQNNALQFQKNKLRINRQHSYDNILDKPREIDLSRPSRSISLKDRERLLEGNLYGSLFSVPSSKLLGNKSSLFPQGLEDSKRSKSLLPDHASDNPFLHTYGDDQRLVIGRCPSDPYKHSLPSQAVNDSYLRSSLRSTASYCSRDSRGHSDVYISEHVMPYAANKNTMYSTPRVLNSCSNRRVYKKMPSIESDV
assay.details: Electrophysiology on recombinant NMDA receptors NMDAR1C-NMDAR2A expressed in Xenopus oocytes
settings: -80 mV, 70 μM Asp plus 2.5 μM Gly, > = highest tested concentration (solubility limit), read-out: Electrophysiology IC50 NMDAR 1C u. 2A

**Q:** Any idea what its IC50 is? The molecule is CCOC(=O)Nc1ccc(OCC(O)CN2CC=C(c3ccc(F)cc3)CC2)cc1 (stereo not drawn)
**A:** > 20 µM

**Q:** Any idea what its IC50 is? The molecule is NC(=O)c1ccc(OCC(O)CN2CC=C(c3ccc(F)cc3)CC2)cc1 (stereo not drawn)
**A:** > 30 µM

**Q:** Any idea what its IC50 is? The molecule is CS(=O)(=O)Nc1ccc(OCCN2CC=C(c3ccc(F)cc3)CC2)cc1
**A:** > 30 µM

---

target.under.test: NMDA receptor (3H-MK801 binding, high and low affinity binding sites)
assay.details: 3H-MK801 (Dizocilpine) binding in vitro, rat whole brain membranes
settings: high affinity binding site; 5 nM 3H-MK-801, 2 hours, room temperature; read-out: 3H-MK801 IC50 high
Please go through the items and note down their IC50.
Output spec: scalar in nM, unitless text.

**Q:** Can you look up IC50 on NMDA receptor (3H-MK801 binding, high and low affinity binding sites) for CC(=O)Nc1ccc(OCC(O)CN2CC=C(c3ccccc3)CC2)cc1 (centres unmarked) ?
**A:** 410

**Q:** Can you look up IC50 on NMDA receptor (3H-MK801 binding, high and low affinity binding sites) for NC(=O)c1ccc(OCC(O)CN2CC=C(c3ccc(F)cc3)CC2)cc1 (centres unmarked) ?
**A:** 330

**Q:** Can you look up IC50 on NMDA receptor (3H-MK801 binding, high and low affinity binding sites) for CC(=O)c1ccc(OCCCN2CC=C(c3ccccc3)CC2)cc1 ?
**A:** 7500

**Q:** Can you look up IC50 on NMDA receptor (3H-MK801 binding, high and low affinity binding sites) for CS(=O)(=O)Nc1ccc(OCC(O)CN2CC=C(c3ccc(F)cc3)CC2)cc1 (centres unmarked) ?
**A:** 20

**Q:** Can you look up IC50 on NMDA receptor (3H-MK801 binding, high and low affinity binding sites) for CS(=O)(=O)Nc1ccc(OCCCN2CC=C(c3ccc(F)cc3)CC2)cc1 ?
**A:** 20

---

target.under.test: NMDA receptor (3H-MK801 binding, high and low affinity binding sites)
assay.details: 3H-MK801 (Dizocilpine) binding in vitro, rat whole brain membranes
settings: low affinity binding site; 5 nM 3H-MK-801, 2 hours, room temperature; read-out: 3H-MK801 IC50 low
Rule: measured IC50 below 80 µM gets Satisfied; anything equal to or greater than 80 µM gets Not satisfied.

**Q:** Please determine if NC(=O)c1ccc(OCC(O)CN2CC=C(c3ccc(F)cc3)CC2)cc1 (stereo not shown) is below 80 µM in terms of IC50.
**A:** Satisfied

**Q:** Please determine if CS(=O)(=O)Nc1ccc(OCCCN2CC=C(c3ccc(F)cc3)CC2)cc1 is below 80 µM in terms of IC50.
**A:** Satisfied

**Q:** Please determine if CC(=O)Nc1ccc(OCC(O)CN2CC=C(c3ccccc3)CC2)cc1 (stereo not shown) is below 80 µM in terms of IC50.
**A:** Not satisfied

**Q:** Please determine if CC(=O)Nc1ccc(OCCCN2CC=C(c3ccc(F)cc3)CC2)cc1 is below 80 µM in terms of IC50.
**A:** Not satisfied

**Q:** Please determine if OC(COc1ccc2c(c1)CCC2)CN1CC=C(c2ccc(F)cc2)CC1 (stereo not shown) is below 80 µM in terms of IC50.
**A:** Not satisfied

**Q:** Please determine if CC(=O)Nc1ccc(OCCCN2CC=C(c3ccc(Cl)cc3)CC2)cc1 is below 80 µM in terms of IC50.
**A:** Not satisfied

**Q:** Please determine if CS(=O)(=O)Nc1ccc(OCC(O)CN2CC=C(c3ccc(F)cc3)CC2)cc1 (stereo not shown) is below 80 µM in terms of IC50.
**A:** Satisfied

**Q:** Please determine if OC(COc1ccccc1)CN1CC=C(c2ccccc2)CC1 (stereo not shown) is below 80 µM in terms of IC50.
**A:** Not satisfied

**Q:** Please determine if COc1ccc(C2=CCN(CCCOc3ccc(NC(C)=O)cc3)CC2)cc1 is below 80 µM in terms of IC50.
**A:** Satisfied

**Q:** Please determine if CCOC(=O)Nc1ccc(OCC(O)CN2CC=C(c3ccc(F)cc3)CC2)cc1 (stereo not shown) is below 80 µM in terms of IC50.
**A:** Not satisfied
